- EXPERIMENTAL TARGET: Carbonic anhydrase 2 (Homo sapiens)
- EXPERIMENT: CAII small-molecule binders, profiling panel, biochemical, small-molecule microarray, Alexa647-labelled CAII (AID 1122)
- MEASUREMENT PARAMETERS: CAII-A647 binding fluorescence, higher = more signal
READOUT LABEL: composite z-score
Give bare numbers.

Worked set:
# MOLECULE, composite z-score
measured = [
    ("COC(=O)C1=CC(c2ccc(CO)cc2)=CC(C2CC2)N(Cc2sc3ccccc3c2Cl)C=C1C(=O)OC (stereo not drawn)", 0.866),
    ("COc1ccc([Si](C)(C)[C@@H]2[C@@H](CCO)O[C@]3(C(=O)N(Cc4ccccc4)c4ccccc43)[C@H]2C)cc1", -0.0193),
    ("COc1ccc([Si](C)(C)[C@H]2[C@H](CC(=O)N3Cc4ccccc4C[C@H]3CO)O[C@@]3(C(=O)N(Cc4cccc(N5CCOC5=O)c4)c4ccccc43)[C@@H]2C)cc1", 0.574),
    ("C=CC[C@]1(C(=O)NCC(O)CO)N=C(c2ccc(OCCCO)cc2)O[C@H]1c1ccccc1 (stereo partly drawn)", 0.793),
    ("COCCOC(=O)N1C(=O)[C@@]2(c3cc(C#CCNC(N)=O)ccc31)[C@H](C(=O)N1CCCCCCC1)[C@H]1C(=O)O[C@H](c3ccccc3)[C@H](c3ccccc3)N1[C@@H]2c1ccccc1OCCO", 0.171),
    ("O=C1c2ccccc2[C@](Cc2ccccc2I)(C(=O)O)[C@H](c2ccc(CO)cc2)N1C1CCCCC1", 0.739),
    ("C=CCNC(=O)[C@H]1[C@@H]2C(=O)O[C@@H](c3ccccc3)[C@@H](c3ccccc3)N2[C@@H](c2ccccc2OCCO)[C@]12C(=O)N(C(=O)OCCOC)c1ccc(C#CCNC(N)=O)cc12", 0.555),
    ("COC(=O)Cn1c(C(=O)N2CCCC2)cc2c1C[C@H]1CN(C(=O)c3ccccc3)[C@@](Cc3ccccc3)(C(=O)OC)[C@@H]21", 0.752),
    ("C[C@H]1COC(=O)[C@H](Cc2ccccc2)NC(=O)[C@@H](C)COC(=O)[C@H](Cc2ccccc2)NC1=O", 0.447),
    ("CO[C@H]1COC(=O)CC=C[C@H](C)COC(=O)[C@@H](OCc2ccccc2)C=C[C@@H]1C", -0.394),
]

Dear colleague, could you send me composite z-score for each of the items below? Thanks.
1. C[C@H]1NC(=O)[C@@H](C)NC(=O)[C@@]23C(=O)N[C@@H](Cc4ccccc4)C2[C@H](C)[C@@]2(C)O[C@H]2C3/C=C/C/C=C\CNC1=O (stereo partly drawn)
2. COCCOC(=O)N1C(=O)[C@@]2(c3cc(C#CCCO)ccc31)[C@H](c1ccc(O)cc1)N1[C@H](c3ccccc3)[C@H](c3ccccc3)OC(=O)[C@H]1[C@@H]2C(=O)Nc1nc2ccccc2s1
3. NC(=O)[C@H]1[C@@H]2C(=O)O[C@@H](c3ccccc3)[C@@H](c3ccccc3)N2[C@@H](c2ccc(O)cc2)[C@]12C(=O)Nc1ccc(C#CCCO)cc12

Response given:
1. 0.502
2. 0.16
3. 0.72

====

Give z-score for every item shown.
- EXPERIMENT: P. aeruginosa biofilm formation inhibitors, primary screen, strain PAO1, LB-PBS medium, absorbance 600 nm (AID 1176); also: test concentration not given here
- MEASUREMENT PARAMETERS: P. aeruginosa PAO1 growth/biofilm, A600, 12 h; higher = more signal
Activity calls are given as the source filed them. The rule behind the calls is not given here.

Worked set:
# COMPOUND, z-score
rows = [
    ("O=C1O[C@H](c2ccccc2)[C@H](c2ccccc2)N2[C@H]1[C@@H](C(=O)NC[C@H](O)c1ccccc1)[C@]1(C(=O)Nc3ccc(C#CC4(O)CCCCCC4)cc31)[C@H]2c1ccc(OCCO)cc1", "1.9 (inactive)"),
    ("O=C/C=C/c1ccccc1Cl", "-0.227 (inactive)"),
    ("O=C1O[C@@H](c2ccccc2)[C@@H](c2ccccc2)N2[C@@H](c3ccc(OCCO)cc3)[C@]3(C(=O)Nc4ccc(C#CCCO)cc43)[C@@H](C(=O)N3CCN(c4ncccn4)CC3)[C@H]12", "1.55 (inactive)"),
    ("COc1cc2c(cc1OC)CN(C(=O)[C@H]1[C@@H]3C(=O)O[C@@H](c4ccccc4)[C@@H](c4ccccc4)N3[C@@H](c3ccc(O)cc3)[C@]13C(=O)Nc1ccc(C#CC4(O)CCCCCC4)cc13)CC2", "0.89 (inactive)"),
    ("COC(=O)C1=CC(c2ccc(CO)cc2)=CC(c2cccs2)N(Cc2cccc(OC(F)(F)F)c2)C=C1C(=O)OC (stereo unspecified)", "0.683 (inactive)"),
]

Next item in the queue.
Quick note, z-score for CCOC(=O)C1=C[C@@H](c2ccccc2)N(S(=O)(=O)c2ccc(C)cc2)[C@H]1c1ccc(F)cc1 landed at 0.216 (inactive)
